# Method Summary: APR_HepG2_CellCycleArrest_24hr: Apredica 24-hour HepG2 Assay for Cell Cycle Arrest (AID 2282905);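 also: cell cycle arrest scored as ratio of 2N to 4N nuclear DNA content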
# Condition Notes: imaging, actives raise or lower the signal
The source made the active and inactive calls. The calls were made as follows: active = hit-call score of the fitted dose curve at least 0.9, where 1 is the maximum; inactive = score below 0.9.
Readout: AC50

// below: answered compounds
## Task # AC50 lookup, item "[O-][Cl+]O"
## Result inactive

## Task # AC50 lookup, item "Clc1ccc(C(c2ccc(Cl)cc2)C(Cl)Cl)cc1"
## Result 100 µM (active)

## Task # AC50 lookup, item "CCCCCCCCOC(=O)c1ccc(C(=O)OCCCCCCCC)c(C(=O)OCCCCCCCC)c1"
## Result inactive

## Task # AC50 lookup, item "CC(C)(C)OOC(=O)c1ccccc1"
## Result inactive

## Task # AC50 lookup, item "Oc1ccccc1Cl"
## Result inactive

## Task # AC50 lookup, item "CN(C)C(=O)Nc1ccc(Cl)cc1"
## Result inactive

## Task # AC50 lookup, item "O=C(Oc1ccc(Br)cc1)N1CCN2CCC1CC2"
## Result inactive

## Task # AC50 lookup, item "CN(C)c1ccc(C(=O)c2ccc(N(C)C)cc2)cc1"
## Result 4.79 µM (active)

## Task # AC50 lookup, item "Nc1ccc([N+](=O)[O-])cc1"
## Result inactive

Next up:
## Task # AC50 lookup, item CCOc1cccc(C2(N3CCN(c4ccccc4)CC3)CCC(C)CC2)c1 (stereo not given)
## Result inactive

----------
# Read-out: Interleukin-8 (IL8), CXCL8 (gene 3576)
# Method Summary: BSK_LPS_IL8: BioMAP Diversity Plus: LPS Assay for Interleukin-8 (IL8) Biomarker Activity (AID 2283078)
# Condition Notes: primary human HUVEC with PBMC; actives raise or lower the signal
# Description: BSK_LPS is a cell-based, multiplexed-readout assay that uses umbilical vein endothelium and peripheral blood mononuclear cells, a human vascular primary cell co-culture, with measurements taken at 24 hours after chemical dosing in a 96-well plate.BSK_LPS_IL8 is an assay component measured in the BSK_LPS assay. It measures IL-8 antibody related to regulation of gene expression using ELISA technology.Data from the assay component BSK_LPS_IL8 was analyzed into 1 assay endpoint. […]
Activity calls are given as the source filed them. Rule for the calls: active = hit-call score of the fitted dose curve at least 0.9, where 1 is the maximum; inactive = score below 0.9.
Hi! Could you answer with just one of these? active, inactive

As a guide, the following entries are already answered.
## Task GET /call?item= "O=P(OCCCl)(OCCCl)OCCCl" returns the recorded outcome of this test.
## Result inactive

## Task GET /call?item= "Cc1cccc(N)c1N" returns the recorded outcome of this test.
## Result active

## Task GET /call?item= C[N+](C)(C)CC1CO1 (configuration not stated) returns the recorded outcome of this test.
## Result inactive

Others:
## Task GET /call?item= "CC(C)(C)OOC(C)(C)CCC(C)(C)OOC(C)(C)C" returns the recorded outcome of this test.
## Result inactive

----------
# Method Summary: APR_HepG2_P-H2AX_72hr: Apredica 72-hour HepG2 Assay for H2AX Phosphorylation (AID 2282916);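 also: phospho-histone H2A.x immunostain intensity per cell marking DNA damage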
# Condition Notes: imaging, actives raise or lower the signal
Activity calls are given as the source filed them. How the source made its calls: active means hit-call score of the fitted dose curve at least 0.9, where 1 is the maximum; inactive means score below 0.9.
Readout: AC50

## Task # AC50 lookup, item "CC(C)N(Cc1ccccc1)C(=O)C(C)(C)C"
## Result inactive

## Task # AC50 lookup, item "c1ccc(NNc2ccccc2)cc1"
## Result 100 µM (active)

## Task # AC50 lookup, item "CN(C)C(=O)Nc1ccc(Cl)cc1"
## Result inactive

## Task # AC50 lookup, item C[N+](C)(C)CC1CO1 (centres undefined)
## Result inactive

----------
# Method Summary: APR_HepG2_MitoticArrest_72hr: Apredica 72-hour HepG2 Assay for Mitotic Arrest (AID 2282918)
# Condition Notes: high-content imaging, actives raise or lower the signal
Active and inactive are the calls of the source. The calls were made as follows: active = hit-call score of the fitted dose curve at least 0.9, where 1 is the maximum; inactive = score below 0.9.
Hi! Could you answer with just one of these? 1.0 (active), 0.0 (inactive)

## Task GET /call?item= "Nc1ccc([N+](=O)[O-])cc1" returns the recorded outcome of this test.
## Result 0.0

## Task GET /call?item= "O=C(Nc1ccccc1)c1ccccc1I" returns the recorded outcome of this test.
## Result 0.0

Others:
## Task GET /call?item= "ClCCOCCCl" returns the recorded outcome of this test.
## Result 0.0

## Task GET /call?item= "O=C(Oc1ccc(Br)cc1)N1CCN2CCC1CC2" returns the recorded outcome of this test.
## Result 1.0

## Task GET /call?item= "CCN(CC)N=O" returns the recorded outcome of this test.
## Result 0.0

----------
# Read-out: Vascular cell adhesion molecule 1 (VCAM1), VCAM1 (gene 7412)
# Method Summary: BSK_CASM3C_VCAM1: BioMAP Diversity Plus: CASM3C Assay for Vascular cell adhesion molecule 1 (VCAM1) Biomarker Activity (AID 2283055);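 also: VCAM-1 protein level quantified by ELISA on the cells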
# Condition Notes: primary human coronary artery smooth muscle cells; actives raise or lower the signal
The source made the active and inactive calls. How the source made its calls: active means hit-call score of the fitted dose curve at least 0.9, where 1 is the maximum; inactive means score below 0.9.
Hi! Could you answer with just one of these? active, inactive

## Task GET /call?item= "CO[C@@H]1[C@H](OC(=O)NC(=O)CCl)CC[C@]2(CO2)[C@H]1[C@@]1(C)O[C@@H]1CC=C(C)C" returns the recorded outcome of this test.
## Result active

## Task GET /call?item= "CC(C)(O)c1cnn2c(-c3ccc(F)c(-c4c(F)cccc4C#N)c3)cnc2n1" returns the recorded outcome of this test.
## Result inactive

## Task GET /call?item= "OCCCBr" returns the recorded outcome of this test.
## Result inactive

Others:
## Task GET /call?item= "CCOC(=O)[C@]1(c2ccccc2)Oc2ccccc2[C@@H]1N" returns the recorded outcome of this test.
## Result inactive

## Task GET /call?item= "CCC12COCN1COC2" returns the recorded outcome of this test.
## Result inactive

## Task GET /call?item= "Clc1ccc(C(c2ccc(Cl)cc2)C(Cl)Cl)cc1" returns the recorded outcome of this test.
## Result inactive

## Task GET /call?item= CC(C)(C)C(O)(CCc1ccc(Cl)cc1)Cn1cncn1 (configuration not stated) returns the recorded outcome of this test.
## Result inactive

## Task GET /call?item= "O=C1CCCO1" returns the recorded outcome of this test.
## Result inactive

## Task GET /call?item= "N#CC(Br)(Br)C(N)=O" returns the recorded outcome of this test.
## Result inactive

## Task GET /call?item= "ClC1=C(Cl)[C@]2(Cl)[C@H]3[C@H]([C@@H]4C=C[C@H]3C4)[C@@]1(Cl)C2(Cl)Cl" returns the recorded outcome of this test.
## Result active

## Task GET /call?item= "c1ccc2c(c1)-c1cccc3cccc-2c13" returns the recorded outcome of this test.
## Result inactive

## Task GET /call?item= "O=C(Nc1ccccc1)c1ccccc1I" returns the recorded outcome of this test.
## Result inactive

## Task GET /call?item= "O=C(N[C@H](c1ccccc1)[C@@H]1CN2CCC1CC2)c1c(Cl)ccc(C(F)(F)F)c1Cl" returns the recorded outcome of this test.
## Result inactive

## Task GET /call?item= "Cc1ccc(N)cc1" returns the recorded outcome of this test.
## Result inactive

## Task GET /call?item= "OCCOCCO" returns the recorded outcome of this test.
## Result inactive

## Task GET /call?item= "O=[N+]([O-])C(Br)(CO)CO" returns the recorded outcome of this test.
## Result active

## Task GET /call?item= "COc1cc(C=O)cc2c1[C@H](COC(N)=O)[C@]1(OC(C)=O)ON2C[C@H]2[C@@H]1N2C(C)=O" returns the recorded outcome of this test.
## Result active

## Task GET /call?item= "Cc1ccc(N=C=O)cc1N=C=O" returns the recorded outcome of this test.
## Result inactive

## Task GET /call?item= "CNC(=O)Oc1cccc2c1OC(C)(C)C2" returns the recorded outcome of this test.
## Result inactive

## Task GET /call?item= "CCC[CH2][Sn]([Cl])([CH2]CCC)[CH2]CCC" returns the recorded outcome of this test.
## Result active

## Task GET /call?item= CCCCC(CC)COC(=O)c1ccc(C(=O)OCC(CC)CCCC)c(C(=O)OCC(CC)CCCC)c1 (configuration not stated) returns the recorded outcome of this test.
## Result inactive

## Task GET /call?item= "OCCCl" returns the recorded outcome of this test.
## Result inactive

## Task GET /call?item= "Oc1ccc2ccc3cccc4ccc1c2c34" returns the recorded outcome of this test.
## Result inactive

## Task GET /call?item= "ClCCOCCCl" returns the recorded outcome of this test.
## Result inactive

## Task GET /call?item= "Clc1ccc(Cl)c(Cl)c1" returns the recorded outcome of this test.
## Result inactive

## Task GET /call?item= "Nc1cc(Cl)cc(C(=O)O)c1Cl" returns the recorded outcome of this test.
## Result inactive

## Task GET /call?item= "Nc1ccc(N=Nc2ccccc2)cc1" returns the recorded outcome of this test.
## Result inactive

## Task GET /call?item= "[As]#[In]" returns the recorded outcome of this test.
## Result inactive

## Task GET /call?item= "[O-][Cl+]O" returns the recorded outcome of this test.
## Result inactive

## Task GET /call?item= "CCCSC(=O)N(CCC)CCC" returns the recorded outcome of this test.
## Result inactive

## Task GET /call?item= "CCN(CC)N=O" returns the recorded outcome of this test.
## Result inactive

## Task GET /call?item= "Nc1ccc([N+](=O)[O-])cc1" returns the recorded outcome of this test.
## Result inactive
